Target: HCV E1E2 antigen, isolate UKN5.15.7 (hepatitis C virus, isolate UKN5.15.7)
Experiment: ELISA, Fab on E1E2 antigen
result-type: OD 450 nm (OD 450 nm)
Write the answer as a number in OD 450 nm, unit excluded.

Solved entries (count: 2):
Fab P6 (Fab, V domains shown) VH: EVQLLESGGGVVQPGKSLTVSCAASGFTFSTFTMHWVRQAPGKWLEWVAVISHDGGTEHYADSVTGRFTISRDNSKNTLHMQMNSLRLEDTAVYFCARGGPAYYLYNDVLTGYYNVVGDFWGQGTLVTVSS VL: ELIQSPGTLFLSSGERATLSCRASQSVSSSNLAWFQHKSGRAPRLLIYGASNRAPDIPDRFSGSGSGTDFTISISRLEPEDFAVYYCQRYGDSPPITFGQGTRLEIKR    0.08
Fab U1 (Fab, V domains shown) VH: VQLLEQSGPEVKRPGTSVKMSCKISGGASITQAMSWVRQAPGQGLEWMGGITPIFGTVNYAQKILGRVTITADEDTVSLELSSLKSEDTAVYYCAREVNLKTWNLAHPNVFDVWGQGTMLTVSS VL: ELTQSPSSLSASVGDRVTITCRASQSISSFLNWYQQKPGKAPKLLIYAASSLQSGVPPRFSGSGSGTDFTLTISSLQPEDFATYYCQQSYSTPRTFGQGTKLEIKR    0.06

As a next step, examine the binder that follows.
Challenge: Report OD 450 nm for Fab Q2 (Fab, V domains shown) VH: VQLLEQSGAEVKKPGASVKVSCKASGYTFTNNGLNWVRQAPGQGLEWMGWISPYNGDTDFAHKFQGRISMTTDTSTNTAYMELRSLRSDDTAVYYCARDRNSAGGTWLFRDPPPGSTFFDSWGQGSLVTVSS VL: ELTQSPASLSLSPGGSATLACRASRGVNSNLAWYHQKPGQAPRLLIYSASTRATGIPGRFSGSGFGTEFTLTINNLQSDDFGVYYCQQYDDTPQITFGQGTRLDIKR please.
Response given: 0.05
